molecular target: Cannabinoid receptor (Mus musculus) (UniProt P47746+P47936); experiment: Agonist activity at cannabinoid receptor in ICR mouse vas deferens assessed as inhibition of electrically induced contractions at 8.1 x 10^-6 M after 10 mins relative to control; type: protein assay
Sequence (P47746 whole entry, looked up): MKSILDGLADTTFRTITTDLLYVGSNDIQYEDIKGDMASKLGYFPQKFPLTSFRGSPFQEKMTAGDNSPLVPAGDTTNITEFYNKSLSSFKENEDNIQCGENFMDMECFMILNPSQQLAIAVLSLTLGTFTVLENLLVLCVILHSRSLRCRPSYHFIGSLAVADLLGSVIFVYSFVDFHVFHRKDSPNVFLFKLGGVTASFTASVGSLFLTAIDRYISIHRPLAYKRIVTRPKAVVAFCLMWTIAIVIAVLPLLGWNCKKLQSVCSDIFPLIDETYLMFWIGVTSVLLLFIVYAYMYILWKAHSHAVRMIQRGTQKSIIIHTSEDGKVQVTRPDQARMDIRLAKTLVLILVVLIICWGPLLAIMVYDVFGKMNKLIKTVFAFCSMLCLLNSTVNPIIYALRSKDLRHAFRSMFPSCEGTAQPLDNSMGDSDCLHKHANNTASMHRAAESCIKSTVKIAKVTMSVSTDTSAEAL
Sequence (P47936 whole entry, looked up): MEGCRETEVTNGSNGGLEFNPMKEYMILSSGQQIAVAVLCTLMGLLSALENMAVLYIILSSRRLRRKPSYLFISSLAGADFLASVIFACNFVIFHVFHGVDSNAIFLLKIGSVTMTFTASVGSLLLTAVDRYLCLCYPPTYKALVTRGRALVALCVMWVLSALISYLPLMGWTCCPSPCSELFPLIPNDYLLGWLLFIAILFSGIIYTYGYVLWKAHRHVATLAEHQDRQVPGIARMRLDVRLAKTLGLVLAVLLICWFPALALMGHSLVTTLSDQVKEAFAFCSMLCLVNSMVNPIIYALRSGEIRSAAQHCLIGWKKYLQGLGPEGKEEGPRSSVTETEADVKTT
# label = label 1 if inhibition >= 60% else label 0

Worked examples, 5 molecules total:
chemicalString	measurementTarget	group
O=C(c1ccccc1Cl)n1nc(OCCCN2CCCCC2)c2ccccc21	Cannabinoid receptor (Mus musculus) (UniProt P47746+P47936)	label 0
O=C(c1ccccc1Cl)n1nc(OCCN2CCCC2)c2ccccc21	Cannabinoid receptor (Mus musculus) (UniProt P47746+P47936)	label 0
O=C(c1cccc(Cl)c1Cl)n1nc(OCCN2CCCC2)c2ccccc21	Cannabinoid receptor (Mus musculus) (UniProt P47746+P47936)	label 0
Cc1cc(C)c(C(=O)n2nc(OCCN3CCCCC3)c3ccccc32)c(C)c1	Cannabinoid receptor (Mus musculus) (UniProt P47746+P47936)	label 0
COc1ccc(COc2nn(CCN(C(C)C)C(C)C)c3ccccc23)cc1	Cannabinoid receptor (Mus musculus) (UniProt P47746+P47936)	label 1

Check the entry O=C(c1cccc(Cl)c1Cl)n1nc(OCCCN2CCCCC2)c2ccccc21 : does inhibition equal or exceed 60%?
label 1

Could you please find out whether O=C(c1cccc2ccccc12)n1nc(OCCCN2CCCC2)c2ccccc21 has inhibition that meets 60% or exceeds it?
label 0
